All figures here come from ChEMBL document CHEMBL5058577.

tested on: Fibroblast; experiment: Multiplex assay against human fibroblast; format: toxicity, cell-based; conditions: 48 h, 1 µM, compound concentration 1 uM, replicate 2
readoutLabel: Population Mitotic Cells (%)
# number only, unit % dropped from output

> print(dat)
                                   compound  numericreadout
1  CN1CCN2c3ccccc3Cc3ccccc3C2C1.Cl (centres undefined) [MIANSERIN HYDROCHLORIDE]              53
2  Cl.Cl.OCCOCCN1CCN(C(c2ccccc2)c2ccc(Cl)cc2)CC1 (centres undefined) [HYDROXYZINE HYDROCHLORIDE]              57
3  Cc1cc(=O)n(C)c2cc(N3C(=O)CC[C@H](NS(=O)(=O)CC(C)C)[C@H]3c3ccc(Cl)cc3)ccc12              53

The record that follows has no Population Mitotic Cells (%) shown yet.
The compound listed as N[C@](CC1c2ccccc2Oc2ccccc21)(C(=O)O)[C@H]1C[C@@H]1C(=O)O has a reported Population Mitotic Cells (%) of 76

----------
tested on: U2OS; experiment: Multiplex assay against U2OS; format: toxicity, cell-based; conditions: human, 24 h, 1 µM, compound concentration 1 uM, replicate 1
Catalogue of molecules with associated Population Pyknosed Nuclei (%)
API: value field is a number in %; no unit string.

Study these solved cases before continuing.
molecule	Population Pyknosed Nuclei (%)
Cc1ccc(OCC(O)C(C)NC(C)C)c2c1CCC2.Cl (stereo not drawn)	10
CN1CCC(C(=O)c2cccc(NC(=O)c3c(F)cc(F)cc3F)n2)CC1	9
O=C(NCCNCC(O)COc1ccc(O)cc1)N1CCOCC1.O=C(NCCNCC(O)COc1ccc(O)cc1)N1CCOCC1.O=C(O)/C=C/C(=O)O (stereo not drawn) [XAMOTEROL FUMARATE]	6
CN1CCN2c3ccccc3Cc3ccccc3C2C1.Cl (stereo not drawn) [MIANSERIN HYDROCHLORIDE]	8

Consider CCn1c(-c2nc3cc(C(=O)N4CCCC(N)C4)ccc3n2C)cc2ccccc21.Cl (stereo not drawn) . Its measured Population Pyknosed Nuclei (%) is 9

Population Pyknosed Nuclei (%) recorded for this molecule, Cc1sc2c(c1C)C(c1ccc(Cl)cc1)=N[C@H](CC(=O)OC(C)(C)C)c1nnc(C)n1-2 , is 7

Noted for COc1cc(Nc2ncc3c(n2)-c2ccc(Cl)cc2C(c2c(F)cccc2OC)=NC3)ccc1C(=O)O : its Population Pyknosed Nuclei (%) reads 8

Population Pyknosed Nuclei (%) in this record for CCC(=O)OCC(=O)[C@@]1(OC(=O)CC)[C@@H](C)C[C@H]2[C@@H]3CCC4=CC(=O)C=C[C@]4(C)[C@@]3(Cl)[C@@H](O)C[C@@]21C [BECLOMETHASONE DIPROPIONATE] : 10

Item: Nc1nc(-c2ccco2)c2cnn(Cc3ccccc3F)c2n1 | Population Pyknosed Nuclei (%): 9

Measured Population Pyknosed Nuclei (%) of CCc1nn2c(C)cc(C)nc2c1Cc1ccc(-c2nnc(C3CCNCC3)o2)cc1 : 10

Population Pyknosed Nuclei (%) recorded for this molecule, Cc1nn(C)c2nc(NNC(=O)Nc3cc(Cl)nc(Cl)c3)cc(C(C)C)c12 , is 8

----------
tested on: HEK-293T; assay: Multiplex assay against HEK293T; type: toxicity, cell-based; details: human, 12 h, 1 µM, compound concentration 1 uM, replicate 1
Quick reference: Population Fragmented Nuclei (%) of the listed items.
Field format: number, assumed %, no unit text.

// solved cases for Population Fragmented Nuclei (%) follow
> print(dat)
                                   compound                      readoutlabel  unitofmeasurement  numericreadout
1  CN1CCN(c2ccc(Nc3c4ccccc4nc4ccccc34)cc2)CC1.Cl.Cl.O  Population Fragmented Nuclei (%)                  %               7
2  CSc1nc(NC2CCCC2)c([N+](=O)[O-])c(NC2CCCC2)n1  Population Fragmented Nuclei (%)                  %              11
3  C[C@H](NC(=O)CNC(=O)c1cccc(Cl)c1)c1ccccc1  Population Fragmented Nuclei (%)                  %               5
4  Cc1cc(NC(=O)NCCN2CCC(O)(Cc3ccccc3)CC2)c2ccccc2n1  Population Fragmented Nuclei (%)                  %               7
5  Nc1nc(CC(=O)Nc2ccc(CCNC[C@H](O)c3ccccc3)cc2)cs1  Population Fragmented Nuclei (%)                  %               5

Please examine the following record next.
The compound listed as CCc1nn2c(C)cc(C)nc2c1Cc1ccc(-c2nnc(C3CCNCC3)o2)cc1 shows Population Fragmented Nuclei (%) equal to 9
